B1: glmS ribozyme (parent)
chain: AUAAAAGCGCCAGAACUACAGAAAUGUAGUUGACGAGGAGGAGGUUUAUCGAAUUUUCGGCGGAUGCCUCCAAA

Variants of: B1
experiment-notes: kcat; higher = faster cleavage; RNA array
condition-notes: with glucosamine-6-phosphate
Variants at the floor of the assay were thinned out.
parameter-measured: kcat (s⁻¹)
Write down the numeric answer in s⁻¹ and omit the unit.

*Q* Looking for the measured kcat of U57G C68G , can you help?
*A* 4.47e-05

*Q* Requested read-out: kcat. Entry: C11A C68U
*A* 5.04e-05

*Q* Using the record for U30A G32U , report its kcat.
*A* 0.000735

*Q* Which kcat is listed for U49G A53G ?
*A* 0.00124

*Q* Reported kcat for A48C C67U : what is it?
*A* 0.000136

*Q* Requested read-out: kcat. Entry: G29U G32A
*A* 0.00151

*Q* Item A53C G66C has what recorded kcat?
*A* 0.000476

*Q* Sample A15U C16G — what was its kcat?
*A* 0.00121

*Q* Record request: kcat value, item U55A U65C
*A* 0.000613

*Q* Return reported kcat; argument: U31G U56G C71A
*A* 0.000443

*Q* Give the measured kcat of G37U C70G .
*A* 2.07e-05

*Q* Query: kcat; subject: A53U U57C
*A* 0.000173

*Q* Using the record for A53U U56C C71U , report its kcat.
*A* 0.00121

*Q* Could you share which kcat value was measured for G59U U69A ?
*A* 1.61e-05

*Q* Look at this variant and give its reported kcat. A12U A42G
*A* 0.0985

*Q* Item under review: A39C U54C . Reported kcat?
*A* 0.00666

*Q* I have this variant here, G7A C34U C70G , and I need its recorded kcat.
*A* 1.85e-05
